The entries below are paired with their reported Ki.
- System name: human α2δ-1 subunit of Cav2.2 calcium channel (Homo sapiens (Human), UniProt P54289)
- Sequence (P54289 25-1103): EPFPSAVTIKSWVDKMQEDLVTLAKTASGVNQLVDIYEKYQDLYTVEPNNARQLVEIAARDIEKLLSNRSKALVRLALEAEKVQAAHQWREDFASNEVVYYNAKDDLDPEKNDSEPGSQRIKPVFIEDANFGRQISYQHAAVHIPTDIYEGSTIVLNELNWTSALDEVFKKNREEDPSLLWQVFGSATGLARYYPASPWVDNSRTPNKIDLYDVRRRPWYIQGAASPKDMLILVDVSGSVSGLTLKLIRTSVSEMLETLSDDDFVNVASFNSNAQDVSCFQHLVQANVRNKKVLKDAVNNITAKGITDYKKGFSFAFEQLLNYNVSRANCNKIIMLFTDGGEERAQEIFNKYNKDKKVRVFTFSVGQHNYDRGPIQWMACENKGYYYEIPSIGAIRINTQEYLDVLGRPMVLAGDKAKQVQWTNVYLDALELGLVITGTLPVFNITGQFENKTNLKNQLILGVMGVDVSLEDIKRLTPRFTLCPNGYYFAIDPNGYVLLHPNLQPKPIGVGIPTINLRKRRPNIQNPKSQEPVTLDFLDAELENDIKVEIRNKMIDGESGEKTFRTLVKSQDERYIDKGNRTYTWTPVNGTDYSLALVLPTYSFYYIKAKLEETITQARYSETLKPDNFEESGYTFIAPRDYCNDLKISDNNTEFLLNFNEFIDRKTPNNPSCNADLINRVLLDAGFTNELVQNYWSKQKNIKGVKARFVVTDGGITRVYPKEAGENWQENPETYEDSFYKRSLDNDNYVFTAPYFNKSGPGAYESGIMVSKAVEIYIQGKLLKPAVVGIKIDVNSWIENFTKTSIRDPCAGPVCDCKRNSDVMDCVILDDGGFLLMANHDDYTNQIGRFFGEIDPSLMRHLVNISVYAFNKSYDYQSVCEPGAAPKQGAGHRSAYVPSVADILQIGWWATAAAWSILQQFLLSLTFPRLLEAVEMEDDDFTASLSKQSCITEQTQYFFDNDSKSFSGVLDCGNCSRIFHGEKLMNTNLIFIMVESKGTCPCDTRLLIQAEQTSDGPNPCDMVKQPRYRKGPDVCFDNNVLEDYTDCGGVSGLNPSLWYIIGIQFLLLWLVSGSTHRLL
- Test protocol: Binding assay to human α2δ-1 subunit of Cav2.2 calcium channel ([3H]-Gabapentin)
- Condition: binding to α2δ-1, [3H]-Gabapentin; read-out: Ki (nM) α2δ-1
- Description: Binding Assay to Human α2δ-1 Subunit of Cav2.2 Calcium Channel. NSB (non specific binding) was measured by adding 10 μM pregabalin. […] Filter plates were dried at 60° C. for 1 hour and 30 μl of scintillation cocktail were added to each well before radioactivity reading.

Compound | Ki
CSc1ncc2c(n1)N(C)CCN(c1ccccc1OC(CCN(C)C(=O)OC(C)(C)C)c1ccccc1)C2=O (stereo not shown) | > 3000 nM
CCNc1ncc2c(n1)N(C)CCN(c1cccc(-n3cc(CN4CCC(c5cccc(O)c5)(N(C)C)CC4)cn3)c1)C2=O | 100 to 500 nM
CCNc1ncc2c(n1)N(C)CCN(c1ccc(OC(CNC)c3ccccc3)cc1)C2=O (stereo not shown) | > 3000 nM
CSc1ncc2c(n1)N(C)CCN(c1cccc(OC(CN(C)C(=O)OC(C)(C)C)C(C)C)c1)C2=O (stereo not shown) | > 3000 nM
CCNc1ncc2c(n1)N(C)CCN(c1cccc(-n3cc(CCN(C)C(=O)OC(C)(C)C)nn3)c1)C2=O | > 3000 nM
CSc1ncc2c(n1)N(C)CCN(c1cccc(OCCN(C)C(=O)OC(C)(C)C)c1)C2=O | > 3000 nM
CNCCC(Oc1ccc(CN2CCN(C)c3nc(OC)ncc3C2=O)cc1)c1sccc1C (stereo not shown) | > 3000 nM
CCNc1ncc2c(n1)N(C)CCN(c1cccc(C(C)(C)CN(C)C(=O)OC(C)(C)C)c1)C2=O | > 3000 nM
CCNc1cc2c(cn1)C(=O)N(c1cccc(COC(CCNC)c3cccs3)c1)CCN2C (stereo not shown) | 100 to 500 nM
CCNc1ncc2c(n1)N(CC)CCN(c1cccc(-c3nnc(C)o3)c1)C2=O | 100 to 500 nM
Cc1nnc(-c2cccc(N3CCN(C)c4nc(N)ncc4C3=O)c2)o1 | 500 to 3000 nM
CNc1ncc2c(n1)N(C)CCN(c1cccc(-c3nnc(C)o3)c1)C2=O | 100 to 500 nM
COc1ccc(N2CCN(C)c3nc(SC)ncc3C2=O)cc1 | > 3000 nM
